melting point values, listed per item

Answered examples (6):
CHEMICAL SMILES: COc1ccc(NC(=O)N2CCN(c3ncnc4cc(OC)c(OC)cc34)CC2)cc1
READOUT NAME: melting point
RESULT: 221 to 223 °C
//
CHEMICAL SMILES: O=C(Nc1ccc([N+](=O)[O-])cc1)N1CCN(c2ncnc3ccccc23)CC1
READOUT NAME: melting point
RESULT: 155 to 158 °C
//
CHEMICAL SMILES: COc1cc2ncnc(N3CCN(C(=O)Nc4ccc(C#N)cc4)CC3)c2cc1OC
READOUT NAME: melting point
RESULT: 274 to 275 °C
//
CHEMICAL SMILES: COc1cc2ncnc(N3CCN(C(=S)Nc4ccc(Oc5ccc([N+](=O)[O-])cc5)cc4)CC3)c2cc1OC
READOUT NAME: melting point
RESULT: 204 to 207 °C
//
CHEMICAL SMILES: CCOC(=O)c1cnc2cc(OC)c(OC)cc2c1N1CCN(C(=O)Nc2ccc(Oc3ccccc3)cc2)CC1
READOUT NAME: melting point
RESULT: 163 to 164 °C
//
CHEMICAL SMILES: COc1cc2ncnc(N3CCN(C(=O)NCc4ccc(F)cc4)CC3)c2cc1OC
READOUT NAME: melting point
RESULT: 200 to 201 °C

For the compound `O=C(Nc1ccc(Oc2ccccc2)cc1)N1CCN(c2nnc(Cc3ccccc3)c3ccccc23)CC1` , report melting point.
100 to 101 °C

For the compound `COc1cc2ncnc(N3CCN(C(=O)NCc4ccsc4)CC3)c2cc1OC` , report melting point.
178 to 179 °C

For the compound `CCCCc1ccc(NC(=O)N2CCN(c3ncnc4cc(OC)c(OC)cc34)CC2)cc1` , report melting point.
216 to 222 °C

For the compound `COc1cc2ncnc(N3CCN(C(=O)Nc4ccccc4)CC3)c2cc1OC` , report melting point.
121 to 123 °C

For the compound `COc1cc(OC)c2ncnc(N3CCN(C(=O)Nc4ccc(Oc5ccccc5)cc4)CC3)c2c1` , report melting point.
109 to 110 °C

For the compound `COc1cc2ncnc(N3CCN(C(=O)Nc4cc(Cl)cc(Cl)c4)CC3)c2cc1OC` , report melting point.
139 to 140 °C

For the compound `O=C(Nc1ccc([N+](=O)[O-])cc1)N1CCN(c2ncnc3cc4ccccc4cc23)CC1` , report melting point.
272 to 275 °C

For the compound `COc1cc2ncnc(N3CCN(C(=O)Nc4ccc(S(C)(=O)=O)cc4)CC3)c2cc1OC` , report melting point.
266 to 269 °C

For the compound `COc1cc2ncnc(N3CCN(C(=O)Nc4cccc(F)c4)CC3)c2cc1OC` , report melting point.
214 to 220 °C

For the compound `Cc1ccc2nc(C(F)(F)F)cc(N3CCN(C(=O)Nc4ccc(Oc5ccccc5)cc4)CC3)c2c1[N+](=O)[O-]` , report melting point.
197 to 198 °C

Data credit: patent US6472391B2
